- Tested on: MDA-MB-231
- experimental.protocol: Antiproliferative activity against human MDA-MB-231 cells assessed as reduction in cell viability after 72 hrs by MTT assay
- Assay type: functional, cell-based
- experimental.conditions: MDA-MB-231, 72 h
Listing: IC50 of selected compounds

C=CC(=O)NCCOCCNC(=O)CN1CCN(c2ccc(Nc3ncc4c(C)c(C(C)=O)c(=O)n(C5CCCC5)c4n3)nc2)CC1: > 20 µM
C=CC(=O)NCCCCCCNC(=O)CN1CCN(c2ccc(Nc3ncc4c(C)c(C(C)=O)c(=O)n(C5CCCC5)c4n3)nc2)CC1: 14.8 µM
CC(=O)c1c(C)c2cnc(Nc3ccc(N4CCN(CCC(=O)NCCOCCNCC#N)CC4)cn3)nc2n(C2CCCC2)c1=O: > 20 µM

Here is the next item to consider.
Given `C=CC(=O)NCCOCCOCCNC(=O)CCN1CCN(c2ccc(Nc3ncc4c(C)c(C(C)=O)c(=O)n(C5CCCC5)c4n3)nc2)CC1` , respond with its IC50.
> 20 µM

The measured values listed here are drawn from ChEMBL document CHEMBL4819081.
